- measured_on: Voltage-gated potassium channel subunit beta-2 (Rattus norvegicus) (UniProt P62483)
- Sequence (P62483 whole entry, looked up): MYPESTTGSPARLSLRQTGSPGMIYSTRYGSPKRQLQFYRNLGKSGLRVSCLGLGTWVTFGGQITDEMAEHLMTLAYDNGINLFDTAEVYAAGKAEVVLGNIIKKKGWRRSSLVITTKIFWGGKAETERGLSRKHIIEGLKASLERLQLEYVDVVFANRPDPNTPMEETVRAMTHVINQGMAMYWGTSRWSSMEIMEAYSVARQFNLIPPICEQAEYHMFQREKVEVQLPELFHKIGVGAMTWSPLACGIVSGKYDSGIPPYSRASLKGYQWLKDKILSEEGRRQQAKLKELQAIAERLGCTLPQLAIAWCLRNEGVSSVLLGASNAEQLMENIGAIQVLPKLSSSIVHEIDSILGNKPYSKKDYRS
- method_description: enhancers of rat Kvbeta2 NADPH turnover – biochemical, NADPH fluorescence, primary screen (AID 623);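 further: fluorescence intensity change per second fitted from 20 to 320 s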
- recorded_conditions: Recombinant KvBeta, NADPH fluorescence decrease slope, 10 min; at 10 µM; stronger effect = lower value
Would you mind telling me the reported NADPH fluorescence slope of each entry?
Format: numeric value only, no unit, no commentary.

Ask: Tell me measured NADPH fluorescence slope for Cn1c(O)c(C=NCc2ccco2)c(=O)n(C)c1=O please.
Result: 3.2e-06

Ask: Specify reported NADPH fluorescence slope for the compound shown: CCCC(=O)OCC[N+](C)(C)C
Result: 5e-06

Ask: Please give the documented NADPH fluorescence slope of C[N+]1(C)[C@@H]2CC(OC(=O)[C@H](CO)c3ccccc3)C[C@H]1[C@@H]1O[C@@H]12 (stereo partly specified)
Result: 2.1e-05

Ask: Determine its reported NADPH fluorescence slope: C=CCn1c(O)c(C(C)=NCCCO)c(=O)[nH]c1=O
Result: -4.7e-05

Ask: Using known records, supply NADPH fluorescence slope for COc1ccccc1-n1c(O)c(C=NCc2ccc3c(c2)OCO3)c(=O)[nH]c1=O
Result: -5.6e-05

Ask: Name the recorded NADPH fluorescence slope of the compound listed here: CC(CCc1ccccc1)NC(C)C(O)c1ccc(O)cc1 (stereo unspecified)
Result: 4.8e-05

----------
- method_description: reduction of polyQ htt aggregates in cells – imaging, exon1htt(103Q)mCFP cells, high-content imaging, primary screen (AID 483);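 further: compound exposure lasted 3 days before fixation; percent of the per-plate median nuclei count of sample wells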
- recorded_conditions: exon1htt(103Q)mCFP cell line, aggregate imaging, at 2 µM; measured here: cell count, toxicity
Please go through the items and note down their nuclei count.
Quick note: give the figure in %, leave out the unit.

Ask: Answer with the recorded nuclei count of COc1ccc(N2CCN(CCCN)CC2)cc1 only.
Result: 106

Ask: Dear colleague, please send me the reported nuclei count for C[N+]1(C)[C@@H]2CC[C@H]1CC(OC(=O)C(CO)c1ccccc1)C2 (stereo partly specified) when you can.
Result: 112

Ask: Answer with reported nuclei count of Cc1ccc2c(c1)[C@@H]1CN(C)CC[C@@H]1N2C(=O)Nc1cccc(C(F)(F)F)c1
Result: 94.1

Ask: Give reported nuclei count value for COc1ccc(CN2CCN(C(=O)Cc3ccccc3)CC2)c(OC)c1
Result: 94

Ask: Give the reported nuclei count for this compound. CC(C)N(CCC(C(N)=O)(c1ccccc1)c1ccccn1)C(C)C (stereo unspecified)
Result: 104

Ask: Look up and state reported nuclei count for Cc1cc(OCC(=O)O)c2c3c(c(=O)oc2c1)CCCC3
Result: 92.2

----------
- method_description: endothelial E-selectin expression blockers – imaging, HUVEC, immunofluorescence, MLSMR starter and 10KST1 sets, primary screen (AID 487);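 further: signal is fraction of cell area covered by stained E-selectin grains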
- recorded_conditions: HUVEC TNFalpha-induced E-selectin immunofluorescence imaging, at 2 µM; stronger effect = higher value
For each record, write down the corresponding inhibition.
Numbers only; they are read as %.

Ask: Please indicate inhibition recorded for CNCC(O)c1ccc(O)cc1 (stereo unspecified)
Result: -43.9

Ask: Provide one value: measured inhibition of O=C1CC(c2ccccc2)CC(O)=C1C=NCCN1CCN(C(=O)Cc2ccccc2)CC1 (stereo unspecified)
Result: -82.2

Ask: Dear colleague, please send me the reported inhibition for CCCCCCn1c(O)c(C=NCCCn2ccnc2)c(=O)[nH]c1=O when you can.
Result: 13.9

Ask: Input COc1ccc(C2SCC(=O)Nc3c2c(=O)[nH]n3C2CCCCCC2)cc1 (stereo unspecified) , output reported inhibition.
Result: 70.4

Ask: Dear colleague, please send me the reported inhibition for CC(C)OCCCNC(=O)c1c(N)n(CC2CCCO2)c2nc3ccccc3nc12 (stereo unspecified) when you can.
Result: -83

Ask: Fill in inhibition for record O=c1[nH]c(=O)n(Cc2ccco2)c(O)c1C=NCCCn1ccnc1
Result: -104

----------
Field: fluorescence slope. Provide a value for each of the compounds that follow.
- measured_on: Voltage-gated potassium channel subunit beta-2 (Rattus norvegicus)
- method_description: inhibitors of rat Kvbeta2 reductase activity – biochemical, NADPH fluorescence, primary screen (AID 622);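 further: slope of raw intensity against log time taken from 70 to 1610 s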
- recorded_conditions: recombinant KvBeta, 4-cyanobenzaldehyde reduction, at 10 µM, stronger effect = higher value
The answer should be a number; do not append a unit.

Ask: # return recorded fluorescence slope for entry CCN(CC)c1ccc(N=Cc2c(O)n(-c3ccccc3C)c(=O)[nH]c2=O)cc1
Result: -0.394

Ask: Could you please provide reported fluorescence slope for COc1ccccc1N1CCN(Cc2cccc(OC)c2O)CC1 ? Thanks!
Result: -0.58

Ask: Provide measured fluorescence slope value, entry: CC(NC(C)(C)C)C(=O)c1cccc(Cl)c1 (configuration not stated)
Result: -0.447

Ask: Query fluorescence slope for OC1(c2ccc(F)cc2)CCNC1 (configuration not stated)
Result: -0.468

Ask: In one line, give reported fluorescence slope of the entry O=C(Cn1cc(C(=O)c2ccccc2)c2ccccc21)NCc1ccco1 .
Result: -0.567

Ask: Identify measured fluorescence slope associated with O=C(Cc1ccccc1)OC(COCc1ccccc1)CN1CCOCC1 (configuration not stated)
Result: -0.37

Ask: Kindly indicate its recorded fluorescence slope. Item: CN1CCN(c2nc3ccccc3c(=O)n2-c2ccccc2)CC1
Result: -0.57

Ask: Give the value of fluorescence slope reported for the following: O=c1c2ccccc2nc(CSc2ncnc3nc[nH]c23)n1-c1ccccc1
Result: -0.492

Ask: // fetch fluorescence slope given entry COc1ccc(CCNC(=O)c2c(N)n(CCN3CCOCC3)c3nc4ccccc4nc23)cc1
Result: -0.454

Ask: Indicate its recorded fluorescence slope; the compound in question is O=C(c1ccc(CS(=O)(=O)c2ccccc2)o1)N1CCC2(CC1)OCCO2
Result: -0.523

Ask: Note down fluorescence slope recorded for O=c1c2ccccc2[se]n1-c1ccccc1
Result: -0.437

Ask: Respond only with fluorescence slope recorded for CCOC(=O)c1cccc([P+](=O)O)c1
Result: -0.582

----------
- measured_on: Dual specificity protein phosphatase 6 (Homo sapiens)
- method_description: Primary imaging screen for DUSP6 inhibitors that restore phospho-Erk in transfected HeLa cells, chemical complementation (AID 609);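 further: phospho-Erk level distribution per well compared with pooled transfected vehicle control wells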
- recorded_conditions: HeLa MKP-3 transfected, phospho-Erk imaging KS statistic, at 10 µM, stronger effect = higher value
Active and inactive are the calls of the source.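 How the source made its calls: active means compounds giving at least 50% inhibition in the cell-based MKP-3 phosphatase rescue imaging test; inactive means the rest.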
Consider the following compounds; for each one, report its inhibition.

Ask: Read off the recorded inhibition for COC1=CC(=O)OC(/C=C/c2ccccc2)C1 (centres undefined)
Result: 25.7% (inactive)

Ask: Retrieve inhibition measured for CCOc1ccc(Cc2c(O)[nH]c(=O)[nH]c2=O)cc1 and print it.
Result: 3.56% (inactive)

Ask: Specify inhibition for CCC(COC(=O)c1cc(OC)c(OC)c(OC)c1)(c1ccccc1)N(C)C (centres undefined) and stop.
Result: 3.45% (inactive)

Ask: Given the compound CC(C)[C@H]1C(=O)N2CCC[C@H]2[C@]2(O)O[C@](NC(=O)[C@@H]3C=C4c5cccc6[nH]cc(c56)C[C@H]4N(C)C3)(C(C)C)C(=O)N12 , write its reported inhibition.
Result: 3.59% (inactive)

Ask: Provide one value: measured inhibition of Cc1c2ccncc2c(C)c2c1[nH]c1ccccc12
Result: 38.9% (inactive)

Ask: Give a short answer stating reported inhibition for CCCCc1nc2ccccc2c(=O)n1-c1ccccc1O .
Result: -4.78% (inactive)

Ask: Recall and state the measured inhibition for CN1[C@@H]2CC[C@H]1CC(OC(=O)C1C=Nc3ccccc31)C2 (some centres undefined) .
Result: 8% (inactive)

Ask: Answer with the recorded inhibition of Nc1ncc(P(=S)(N2CCOCC2)N2CCOCC2)s1 only.
Result: 4.37% (inactive)

Ask: Please look at this compound and report its inhibition: O=c1c(C=NCCN2CCNCC2)c(O)n(C2CCCCC2)c(=O)n1C1CCCCC1
Result: 3.97% (inactive)

Ask: Quickly give me recorded inhibition for CN(C)[C@@H]1C(=O)C(C(N)=O)=C(O)[C@@]2(O)C(=O)C3=C(O)c4c(O)cccc4[C@@](C)(O)[C@H]3[C@H](O)[C@@H]12
Result: 8% (inactive)

Ask: Identify inhibition associated with the compound CCCCCCn1c(O)c(C=NCCCn2ccnc2)c(=O)[nH]c1=O
Result: 2.71% (inactive)

Ask: Note inhibition for the compound shown: O=C(CN1CCN(CCO)CC1)Nc1ccc(Cl)cc1C(=O)c1ccccc1
Result: 11.9% (inactive)

Ask: Supply recorded inhibition for O=c1[nH]c(=O)n(Cc2ccccc2)c(O)c1C=NCCN1CCNCC1 here.
Result: 7.93% (inactive)

Ask: Quickly give me recorded inhibition for CN1CCc2nc(SCC(=O)OC(C)(C)C)c(C#N)cc2C1
Result: 16% (inactive)

Ask: Return inhibition for the following compound: O=c1[nH]c(=O)n(CCc2ccccc2)c(O)c1C=NCCCn1ccnc1
Result: -2.59% (inactive)

Ask: Read the entry CCC(=NCCOc1ccc(Cl)cc1)c1c(O)n(C)c(=O)n(C)c1=O and write its reported inhibition.
Result: 13.2% (inactive)

Ask: Please give the documented inhibition of O=c1[nH]c(=O)n(Cc2ccccc2)c(O)c1C=NCCN1CCOCC1
Result: 2.71% (inactive)

Ask: Give inhibition for CCCCn1c(O)c(C=NCCN2CCCCC2)c(=O)[nH]c1=O
Result: -4.7% (inactive)

Ask: Query inhibition for CCn1c(O)c(C(=O)CC2NCCc3ccccc32)c(=O)n(CC)c1=S (centres undefined)
Result: 3.97% (inactive)

Ask: For the compound CN1C(=O)CN=C(c2ccc(Cl)cc2)c2cc(Cl)ccc21 , report inhibition.
Result: -6.41% (inactive)

Ask: For the compound COc1cc2[nH]c(=O)n(-c3cccc(Cl)c3)c(=O)c2cc1OC , give its measured inhibition value.
Result: -1.12% (inactive)

Ask: Please give measured inhibition of the following entry: CCc1nc(N2CCNCC2)c(C#N)c2c1CSC(C)(C)C2
Result: 1.12% (inactive)

Ask: Name the recorded inhibition of the item C[C@]12CCC(=O)C=C1CC[C@@H]1[C@@H]2CC[C@]2(C)C(=O)CC[C@@H]12 in your answer.
Result: 11.3% (inactive)

Ask: Provide one value: measured inhibition of COCC(C)OC(=O)c1c(N)n(Cc2ccco2)c2nc3ccccc3nc12 (centres undefined)
Result: -11.9% (inactive)

Ask: Give inhibition for CCCCNC(=O)Nc1ccc(C(O)(C(=O)OCC)C(F)(F)F)cc1 (centres undefined)
Result: 3.49% (inactive)

Ask: Note inhibition for the compound shown: CN1CCN(C(=O)OC2c3nccnc3C(=O)N2c2ccc(Cl)cn2)CC1 (centres undefined)
Result: 3.45% (inactive)

Ask: Return value of inhibition for input COc1ccc(OC)c([C@@H](O)[C@H](C)NC(C)(C)C)c1 , no commentary.
Result: 23.2% (inactive)

Ask: Output inhibition of CCCCC1(CN2CCCC2=O)C(=O)NC(=O)NC1=O
Result: 3.5% (inactive)

Ask: Return reported inhibition. Input compound: O=c1[nH]c(=O)n(Cc2ccco2)c(O)c1C=NCCN1CCOCC1
Result: -8.95% (inactive)

Ask: State its inhibition: COc1ccc(C(=O)CC2C(=O)N(C)C(=O)N(C)C2=O)cc1
Result: -3.95% (inactive)

Ask: Answer with the recorded inhibition of CNCCc1c[nH]c2ccccc12 only.
Result: -6.41% (inactive)

Ask: Please give the documented inhibition of CC(=NCCO)c1c(O)n(C)c(=O)n(C)c1=O
Result: 31% (inactive)

Ask: Look up inhibition of CCOC(=O)c1cc(C)n(CCc2cnc[nH]2)c1C and report it.
Result: -2.59% (inactive)

Ask: Return value of inhibition for input CC1(C)NCCN2C(=O)CSC21 (centres undefined) , no commentary.
Result: 4.72% (inactive)

Ask: Let me know recorded inhibition for CCCCOCCCn1c(N)c(C(=O)OCCOC)c2nc3ccccc3nc21 , thanks.
Result: 15.5% (inactive)

Ask: Give inhibition for the following compound: CCOc1ccccc1-n1c(O)c(C=Nc2ccc(N(CC)CC)cc2)c(=O)[nH]c1=O
Result: 6.04% (inactive)

Ask: Report inhibition, nothing else, for this compound: O=c1[nH]c(=O)n(-c2cccc(Cl)c2)c(O)c1C=NCCN1CCCCC1
Result: 15% (inactive)

Ask: State its inhibition for this compound: O=c1[nH]c2ccccc2c(=O)n1-c1cccc(Cl)c1
Result: -18.6% (inactive)

Ask: Return reported inhibition. Input compound: C[N+]1(C)CCN(c2ccccc2)CC1
Result: 19% (inactive)

Ask: Report inhibition, nothing else, for this compound: C[C@H]1CCC/C=C/C2C[C@H](O)CC2[C@H](O)/C=C/C(=O)O1 (some centres undefined)
Result: 23.4% (inactive)

Ask: Respond only with inhibition recorded for CCCCCCn1c(O)c(C=Nc2c(C)n(C)n(-c3ccccc3)c2=O)c(=O)[nH]c1=O
Result: -7.01% (inactive)
